tgt: M. abscessus DHFR (recombinant) (Mycobacteroides abscessus, UniProt B1MD46)
Construct: gene MAB_3090c; E. coli codon-optimised gene in pET28a (NcoI/XhoI), N-terminal His6-tag, expressed in E. coli BL21(DE3), Ni-NTA purified; tag removal not mentioned
Sequence (B1MD46 1-163): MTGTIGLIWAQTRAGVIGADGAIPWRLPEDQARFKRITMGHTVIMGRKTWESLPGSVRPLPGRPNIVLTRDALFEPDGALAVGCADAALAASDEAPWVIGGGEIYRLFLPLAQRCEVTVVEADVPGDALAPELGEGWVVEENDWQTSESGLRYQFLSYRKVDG
assay: NADPH absorbance decrease at […] nm (DHFR kit CS0340)
Format: biochemical
setup_conditions: read-out: IC50 (μM) ^ b
Let's look at some molecules and their measured IC50.

molecule: COCCOc1c(OC)cc(Cc2cnc(N)nc2N)cc1OC [Tetroxoprim]
measurement_units: µM
IC50: 20
--
molecule: CN(Cc1cnc2nc(N)nc(N)c2n1)c1ccc(C(=O)N[C@@H](CCC(=O)O)C(=O)O)cc1 [Methotrexate]
measurement_units: µM
IC50: 0.016
--
molecule: COc1cc(Cc2cnc(N)nc2N)cc(OC)c1Br [Brodimoprim]
measurement_units: µM
IC50: 1.7
--
molecule: COc1cc(Cc2cnc(N)nc2N)cc(OC)c1OC [Trimethoprim]
measurement_units: µM
IC50: 25
--
molecule: CC1(C)N=C(N)N=C(N)N1OCCCOc1cc(Cl)c(Cl)cc1Cl [WR99210]
measurement_units: µM
IC50: 0.016

Every entry's value here was drawn from paper PMC10777855.
